Listing of entries alongside the reported inhibition at 20 ppm.
system: Septoria tritici; test: Septoria tritici in vitro cell test; format: cell-based; settings: Zymoseptoria tritici, 168 h; 20 ppm of active ingredient; 7 days incubation; liquid culture, spectrometric measurement of mycelium growth; read-out: efficacy (inhibition of fungal growth)

// worked examples, inhibition at 20 ppm included
# compound, inhibition at 20 ppm
rows = [
    ("CSc1ncc(Oc2cccc(C(F)(F)F)c2)c(C2=NOC[C@@H](Cc3ccc(C)cc3C)N2)n1 (racemic) [Compound I-017]", "70 to 79%"),
    ("COc1cccc(Oc2cnc(C)nc2C2=NOC[C@@H](Cc3ccc(C)cc3C)N2)c1 (racemic) [Compound I-032]", "90 to 100%"),
    ("C=Cc1cccc(Oc2cnc(C)nc2C2=NOC[C@@H](Cc3ccc(C)cc3C)N2)c1 (racemic) [Compound I-019]", "90 to 100%"),
]

(Q) Note inhibition at 20 ppm for the compound shown: Cc1ccc(C[C@@H]2CON=C(c3nc(C)ncc3Oc3cccc(C(F)(F)F)c3)N2)c(Cl)c1 (racemic) [Compound I-013]
(A) 90 to 100%

(Q) Retrieve inhibition at 20 ppm measured for C#Cc1cccc(Oc2cnc(C)nc2C2=NOC[C@@H](Cc3ccc(C)cc3C)N2)c1 (racemic) [Compound I-025] and print it.
(A) 90 to 100%

(Q) Name the recorded inhibition at 20 ppm of the item Cc1ccc(CC2CON=C(c3nc(C)ncc3Oc3cccc(C(F)(F)F)c3)N2)c(C)c1 (racemic) [Compound I-002] in your answer.
(A) 90 to 100%

(Q) Read the entry Cc1ccc(C[C@@H]2CON=C(c3nc(C)ncc3Oc3cccc(C4CC4)c3F)N2)c(C)c1 (racemic) [Compound I-016] and write its reported inhibition at 20 ppm.
(A) 90 to 100%

(Q) Indicate the recorded inhibition at 20 ppm value for this compound: Cc1ccc(CC2CON=C(c3nc(C)ncc3Oc3cccc([N+](=O)[O-])c3)N2)c(C)c1 (racemic) [Compound I-003]
(A) 90 to 100%

(Q) Give reported inhibition at 20 ppm value for Cc1cccc(Oc2cnc(C)nc2C2=NOC[C@@H](Cc3ccc(C)cc3C)N2)c1 (racemic) [Compound I-004]
(A) 90 to 100%

(Q) Quick one: give measured inhibition at 20 ppm for Cc1ncc(Oc2cccc(C(F)(F)F)c2)c(C2=NOCC(Cc3ccc(C4CC4)cc3C)N2)n1 (racemic) [Compound I-029]
(A) 90 to 100%

---

In this section, each of the molecules is paired with its reported chromatographic logP.
assay: Measurement of Log P values by HPLC on reversed phase columns (EEC directive 79/831 Annex V.A8); assay type: physicochemical; conditions: LogP
Give the figure by itself; no unit, no explanation.

Example results:
# molecule, chromatographic logP
data = [
    ("Cc1ccc(C[C@H](CCl)NC(=NO)c2nc(C)ncc2Oc2cccc(Cl)c2F)c(Cl)c1 (racemic) [Compound 11-06]", 4.16),
    ("Cc1ncc(Oc2cccc(Cl)c2)c(C(N)=NOC(C)(C)C(=O)c2ccc(F)cc2F)n1 [Compound 19-03]", 3.41),
    ("CSc1ncc(Br)c(C(=O)N[C@@H](CON2C(=O)c3ccccc3C2=O)Cc2ccc(C)cc2Cl)n1 (racemic) [Compound 3-03]", 4.62),
]

(Q) Give me measured chromatographic logP, please, for this molecule: Cc1ncc(Oc2cccc(C(F)(F)F)c2)c(C2=NOC[C@@H](Cc3ccc(C(F)F)cc3Cl)N2)n1 (racemic) [Compound I-033]
(A) 4.02

(Q) For the molecule Cc1ncc(Oc2cccc(Cl)c2)c(C2=NOC[C@@H](c3ccc4c(c3)OCCO4)N2)n1 (racemic) [Compound I-031] , give its measured chromatographic logP value.
(A) 3.04

(Q) Name the recorded chromatographic logP of the item Cc1ncc(Oc2cccc(Cl)c2)c(C(N)=NOCC(=O)c2ccc3c(c2)OCCO3)n1 [Compound 19-02] in your answer.
(A) 3.12

(Q) Check the records and state chromatographic logP for Cc1ncc(Oc2cccc(C(F)(F)F)c2)c(C(=O)N[C@@H](CCl)Cc2ccc(SC(F)(F)F)cc2)n1 (racemic) [Compound 10-09]
(A) 4.92

---

assay: Measurement of Log P values by HPLC on reversed phase columns (EEC directive 79/831 Annex V.A8); type: physicochemical; conditions: LogP
Listed below: chromatographic logP values for each entry.
Please give the numeric answer without any surrounding text.

These solved cases illustrate the format of a correct answer.
# compound, chromatographic logP
records = [
    ("Cc1ccc([C@@H]2CON=C(c3nc(C)ncc3Oc3cccc(Cl)c3)N2)c(C)c1 (racemic) [Compound I-034]", 3.8),
    ("C#Cc1cccc(Oc2cnc(C)nc2C(=O)N[C@@H](CON2C(=O)c3ccccc3C2=O)Cc2ccc(C)cc2C)c1 (racemic) [Compound 3-02]", 4.41),
    ("Cc1ccc(C[C@@H]2CON=C(c3nc(C)ncc3Oc3cccc(Cl)c3)N2)c(C)c1 (racemic) [Compound I-023]", 4.15),
    ("Cc1ccc(CC(CON)NC(=O)c2nc(C3CC3)ncc2Oc2cccc(C(F)(F)F)c2)c(C)c1 (racemic) [Compound 4-01]", 3.7),
    ("C=Cc1ccc(C[C@@H]2CON=C(c3nc(C)ncc3Oc3cccc(C(F)(F)F)c3)N2)c(C)c1 (racemic) [Compound I-006]", 4.44),
]

(Q) # return recorded chromatographic logP for entry Cc1ncc(Oc2cccc(Cl)c2)c(C(N)=NOCC(=O)c2ccc3c(c2)CCC3)n1 [Compound 19-01]
(A) 4.15

(Q) Specify measured chromatographic logP for C=Cc1cccc(Oc2cnc(C)nc2C2=NOC[C@@H](Cc3ccc(C)cc3C)N2)c1 (racemic) [Compound I-019] .
(A) 4.09

---

system: Botrytis cinerea; assay: In vivo preventive test on Botrytis cinerea (grey mould); settings: 500 ppm of active ingredient, preventive spray on young gherkin or cabbage plants, evaluated 4 to 5 days after inoculation, read-out: efficacy
Attribute: pest or weed control at 500 ppm

# compound, experimental.readout, measured
measured = [
    ("Cc1ncc(Oc2cccc(C(F)(F)F)c2)c(C2=NOCC(Cc3ccc(Br)cc3C)N2)n1 (racemic) [Compound I-021]", "pest or weed control at 500 ppm", "90 to 100%"),
    ("Cc1ccc(C[C@@H]2CON=C(c3nc(C)ncc3Oc3cccc(C(F)(F)F)c3)N2)c(Cl)c1 (racemic) [Compound I-013]", "pest or weed control at 500 ppm", "90 to 100%"),
    ("Cc1ccc(CC2CON=C(c3nc(C4CC4)ncc3Oc3cccc(C(F)(F)F)c3)N2)c(C)c1 (racemic) [Compound I-001]", "pest or weed control at 500 ppm", "90 to 100%"),
    ("C#Cc1cccc(Oc2cnc(C)nc2C2=NOC[C@@H](Cc3ccc(C)cc3C)N2)c1 (racemic) [Compound I-025]", "pest or weed control at 500 ppm", "90 to 100%"),
    ("Cc1ccc(C[C@@H]2CON=C(c3nc(C)ncc3Oc3cccc(C4CC4)c3)N2)c(C)c1 (racemic) [Compound I-024]", "pest or weed control at 500 ppm", "90 to 100%"),
    ("Cc1ccc(C[C@@H]2CON=C(c3nc(C)ncc3Oc3cccc(Cl)c3F)N2)c(Cl)c1 (racemic) [Compound I-005]", "pest or weed control at 500 ppm", "90 to 100%"),
]

(Q) Please tell me the measured pest or weed control at 500 ppm for Cc1ccc(CC2CON=C(c3nc(C)ncc3Oc3cccc(C(F)(F)F)c3)N2)c(C)c1 (racemic) [Compound I-002] ; system: Botrytis cinerea.
(A) 90 to 100%

(Q) Find the measured pest or weed control at 500 ppm of Cc1ncc(Oc2cccc(C(F)(F)F)c2)c(C2=NOC[C@@H](Cc3ccc(OC(F)F)cc3Cl)N2)n1 (racemic) [Compound I-027] with Botrytis cinerea as test system.
(A) 90 to 100%

(Q) Enter pest or weed control at 500 ppm (test system Botrytis cinerea) for Cc1ncc(Oc2cccc(C(F)(F)F)c2)c(C2=NOC[C@@H](Cc3csc(C(F)(F)F)c3)N2)n1 (racemic) [Compound I-015]
(A) 70 to 79%

(Q) Please look at Cc1ncc(Oc2cccc(C(F)(F)F)c2)c(C2=NOC[C@@H](Cc3ccc(C(F)F)cc3Cl)N2)n1 (racemic) [Compound I-033] and tell me its recorded pest or weed control at 500 ppm on Botrytis cinerea.
(A) 90 to 100%

(Q) State measured pest or weed control at 500 ppm of the compound Cc1ncc(Oc2cccc(C(F)(F)F)c2)c(C2=NOCC(Cc3ccc(C4CC4)cc3C)N2)n1 (racemic) [Compound I-029] with Botrytis cinerea.
(A) 90 to 100%

---

Listed here are compounds together with their documented inhibition at 20 ppm.
system: Botrytis cinerea; experiment: Botrytis cinerea in vitro cell test; assay type: cell-based; conditions: 144 h, 20 ppm of active ingredient, 6 days incubation, liquid culture, spectrometric measurement of mycelium growth, read-out: efficacy (inhibition of fungal growth)

Take a look at these entries with their results.
# compound, assayed.system, measured
data = [
    ("Cc1ncc(Oc2cccc(Cl)c2)c(C2=NOCC(c3ccc4c(c3)CCC4)N2)n1 (racemic) [Compound I-014]", "Botrytis cinerea", "90 to 100%"),
    ("Cc1cccc(Oc2cnc(C)nc2C2=NOC[C@@H](Cc3ccc(C)cc3C)N2)c1 (racemic) [Compound I-004]", "Botrytis cinerea", "90 to 100%"),
]

Now look at this entry.
(Q) Give the value of inhibition at 20 ppm reported for the following: Cc1ccc(C[C@@H]2CON=C(c3nc(C)ncc3Oc3cccc(Cl)c3)N2)c(Cl)c1 (racemic) [Compound I-018]
(A) 90 to 100%
